# target_desc: T1, huCLL1-Q244-Avi-Tev-His (human, UniProt Q5QGZ9 65-265);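 further: Bio-layer interferometry with scFvs captured on biosensors via anti-V5 antibody, exposed 2 min to CLL-1 K244 or Q244 protein, 5 min dissociation, scored as binding, no binding or ambiguous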
# T1 construct: extracellular domain; also called CLL-1 K244Q
# T1 sequence (looked up): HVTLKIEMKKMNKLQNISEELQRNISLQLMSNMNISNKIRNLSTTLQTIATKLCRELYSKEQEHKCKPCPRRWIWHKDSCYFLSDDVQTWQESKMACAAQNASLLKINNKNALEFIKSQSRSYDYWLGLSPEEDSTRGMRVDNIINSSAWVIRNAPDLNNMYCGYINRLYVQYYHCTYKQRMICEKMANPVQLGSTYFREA
# assay_method_text: BLI
measure: binding result

# example entries with known answers
| binder | binding result |
| --- | --- |
| Polypeptide No. 50 (scFv, V domains shown, scFv) VH: QVQLVQSGAEVKKPGASVKVSCKASGYTFTDYYMHWVRQAPGQGLEWMGIINPSDGSTTYAQSFQGRVTMTRDTSTSTVYMELSSLRSEDTAVYYCARDELPDSSGWYGYFQHWGQGTLVTVSS VL: DIQMTQSPSSLSASVGDRVTITCRASQSISSWLAWYQQKPGKAPKLLIYAASSLQSGVPSRFSGSGSGTDFTLTISSLQPEDFATYYCQQSYDIPLTFGGGTKVEIKR | no binding |
| Polypeptide No. 62 (scFv, V domains shown, scFv) VH: QVQLVQSGAEVKKPGASVKVSCKASGYTFTDHFVHWVRQAPGQGLEWMGWISAYNGNTNYAQKFQGRVTMTRDTSTSTVYMELSSLRSEDTAVYYCARAEYSYGFDYWGQGTLVTVSS VL: DIQMTQSPSSLSASVGDRVTITCRASQGIHNYLAWYQQKPGKAPKLLIYDASNLETGVPSRFSGSGSGTDFTLTISSLQPEDFATYYCQQTSSFPYTFGQGTKLEIKR | no binding |
| Polypeptide No. 70 (scFv, V domains shown, scFv) VH: EVQLLESGGGLVQPGGSLRLSCAASGMSVTSNHMSWVRQAPGKGLEWVSSIYPDGKTYYADSVKGRFTISRDNSKNTLYLQMNSLRAEDTAVYYCARDEEDWFDPWGQGTLVTVSS VL: DIQMTQSPSSLSASVGDRVTITCQASQSISNWLAWYQQKPGKAPKLLIYAASTLQSGVPSRFSGSGSGTDFTLTISSLQPEDFATYYCQQSYSTPWTFGQGTKVEIKR | binds |
| Polypeptide No. 55 (scFv, V domains shown, scFv) VH: QVQLVQSGAEVKKPGASVKVSCKASGYTFTGYHMHWVRQAPGQGLEWMGWINPNTGGTNYAQKFQGRVTMTRDTSTSTVYMELSSLRSEDTAVYYCARPNTAMVPPYYYYYGMDVWGQGTLVTVSS VL: DIQMTQSPSSLSASVGDRVTITCQASQDISNYLNWYQQKPGKAPKLLIYAASSLQSGVPSRFSGSGSGTDFTLTISSLQPEDFATYYCQQYNSYPLTFGQGTKLEIKR | no binding |
| Polypeptide No. 82 (scFv, V domains shown, scFv) VH: QVQLVQSGAEVKKPGSSVKVSCKASGGTFSNYDISWVRQAPGQGLEWMGGIIPIFGTANYAQKFQGRVTITADESTSTAYMELSSLRSEDTAVYYCAREAEEGGWFDPWGQGTLVTVSS VL: EIVMTQSPATLSVSPGERATLSCRASQSVSSYLAWYQQKPGQAPRLLIYGASTRATGIPARFSGSGSGTEFTLTISSLQSEDFAVYYCQQYAFSPITFGQGTKLEIKR | binds |

What does the data say about its binding result? Entry: Polypeptide No. 67 (scFv, V domains shown, scFv) VH: QVQLVQSGAEVKKPGASVKVSCKASGDTFTRHYVHWVRQAPGQGLEWMGRVNPRDGRTNSAQKFQGRVTMTRDTSTSTVYMELSSLRSEDTAVYYCAKDMFPTVTGTYYYYGMDVWGQGTTVTVSS VL: DIQMTQSPSSLSASVGDRVTITCRASQGISSYLAWYQQKPGKAPKLLIYDASNLETGVPSRFSGSGSGTDFTLTISSLQPEDFATYYCQQASGFPYTFGQGTRLEIKR
binds

Can you handle Polypeptide No. 43 (scFv, V domains shown, scFv) VH: QVQLVQSGAEVKKPGASVKVSCKASGYTFTNYYMHWVRQAPGQGLEWLGWISPYSGDTKYAQTLQGRVTMTRDTSTSTVYMELSSLRSEDTAVYYCARESMDRLDYWGQGTLVTVSS VL: DIQMTQSPSSLSASVGDRVTITCRASQSISTYLNWYQQKPGKAPKLLIYDASNLETGVPSRFSGSGSGTDFTLTISSLQPEDFATYYCQQSYSTPVLTFGGGTKVEIKR next?
no binding

Can you handle Polypeptide No. 81 (scFv, V domains shown, scFv) VH: EVQLLESGGGLVQPGGSLRLSCAASGFTFSDHYMSWVRQAPGKGLEWVSIIYPDGKTYYADSVKGRFTISRDNSKNTLYLQMNSLRAEDTAVYYCAREGSYGDYDGMDVWGQGTTVTVSS VL: DIQMTQSPSSLSASVGDRVTITCQASQDISNYLNWYQQKPGKAPKLLIYGASTLQSGVPSRFSGSGSGTDFTLTISSLQPEDFATYYCQQSYSTPWTFGQGTKLEIKR next?
binds

Can you handle Polypeptide No. 78 (scFv, V domains shown, scFv) VH: QVQLVQSGAEVKKPGSSVKVSCKASGGTFSRYPFSWVRQAPGQGLEWMGWMNPNNGDTGYAQKFQGRVTITADESTSTAYMELSSLRSEDTAVYYCARGDYPYMDVWGKGTTVTVSS VL: DIQMTQSPSSLSASVGDRVTITCQASQDISNYLNWYQQKPGKAPKLLIYDASNLETGVPSRFSGSGSGTDFTLTISSLQPEDFATYYCQQSYSIPYTFGQGTKLEIKR next?
binds

Can you handle Polypeptide No. 57 (scFv, V domains shown, scFv) VH: QVQLVQSGAEVKKPGASVKVSCKASGYTFNNYGITWVRQAPGQGLEWMGIINPITGVTTYAQNFQGRVTMTRDTSTSTVYMELSSLRSEDTAVYYCASGEQQLVLFDYWGQGTLVTVSS VL: DIQMTQSPSSLSASVGDRVTITCQASQDINDYLNWYQQKPGKAPKLLIYGASNLQSGVPSRFSGSGSGTDFTLTISSLQPEDFATYYCLQHNSYPLTFGQGTKLEIKR next?
no binding
